Listing of recorded IC50 of pseudovirus infection (luciferase) by entry.
- Tested on: spike protein of SARS-CoV-2 B.1.1.482 strain on pseudovirus (SARS-CoV-2 (B.1.1.482 strain))
- Experimental protocol: cell-based or functional assay
Numbers only here, please. The scale is ng/mL.

Ask | Could you tell me which IC50 of pseudovirus infection (luciferase) is on file for Ab159 (antibody, V domains shown) VH: QVQLVESGGGLVKPGGSLRLSCAASGFTFNNAWMSWVRQAPGKGLEWVGRIKSKTDGGTTDYAAPVKGRFTFSRDDSKNTLYLQMSSLKTEDTALYYCTTADYDILTGTPASPYWGQGTLVTVSS VL: DIQMTQSPSSLSASVGDRVTITCRASQSITNYLNWYQQKPGKAPKFLIYAASSLQGGVPSRFRGSGSGTDFTLTISSLQPEDFATYYCQQTYSTLWTFGQGTKVEIK ?
Reply | 23.3

Next binder, please.
Ask | Suppose we examine the binder Ab830 (antibody, V domains shown) VH: QVQLVQSGAEVKKPGSSVKVSCKTSGGTFTNYTISWVRQAPGQGLEWMGRIIPIFDIVNYAQKFQGRVTITADKSTSTTYMELSSLRSEDTAVYYCARDGVLYDTSGYLYDAFDIWGQGTMVTVSS VL: DIQMTQSPSSLSASVGDRVTITCRASQGINNYLAWFQQKPGKAPKSLIYAASSLQSGVPPKFSGSGSGTDFTLTISSLQPEDFATYYCLHYNSYPWTFGQGTKVEIK ; what IC50 of pseudovirus infection (luciferase) value has been reported?
Reply | 4.2

Values were extracted from patent US20230348573A1.
